molecular target: UniProt Q99572; experiment: P2X7 FLIPR assay (BzATP-stimulated calcium fluorescence, antagonist IC50); assay type: cell-based
Sequence (Q99572 whole entry): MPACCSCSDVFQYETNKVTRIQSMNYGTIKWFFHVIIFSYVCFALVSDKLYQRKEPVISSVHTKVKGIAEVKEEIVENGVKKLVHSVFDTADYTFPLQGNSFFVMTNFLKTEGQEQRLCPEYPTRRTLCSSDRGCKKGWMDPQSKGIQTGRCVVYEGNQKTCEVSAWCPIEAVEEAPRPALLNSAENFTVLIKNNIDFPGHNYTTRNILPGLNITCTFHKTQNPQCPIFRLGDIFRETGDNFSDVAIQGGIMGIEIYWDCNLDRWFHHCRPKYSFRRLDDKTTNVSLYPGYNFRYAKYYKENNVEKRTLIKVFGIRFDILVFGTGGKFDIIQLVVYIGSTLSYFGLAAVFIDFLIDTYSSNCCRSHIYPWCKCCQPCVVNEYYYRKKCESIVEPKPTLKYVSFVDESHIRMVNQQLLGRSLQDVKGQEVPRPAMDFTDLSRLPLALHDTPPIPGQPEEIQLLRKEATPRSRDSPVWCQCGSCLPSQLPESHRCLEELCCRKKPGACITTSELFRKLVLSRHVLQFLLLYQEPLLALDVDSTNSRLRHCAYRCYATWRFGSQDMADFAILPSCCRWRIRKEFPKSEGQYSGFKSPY
Answer each item with its documented pIC50.
Numbers only, as −log10 of the molar value.

- molecule: "O=C(NCC(CC1CC1)c1ccc(C(F)F)nc1)c1cccc(Cl)c1Cl (single isomer, unassigned; (+))"
  pIC50: 7.62
- molecule: "O=C(NCC1(c2ccc(F)nc2)CCC(F)(F)CC1)c1cccc(F)c1Cl"
  pIC50: 8.28
- molecule: "O=C(NCC1(c2ccc(F)nc2)CCC(F)(F)CC1)c1cc(Cl)ccc1Cl"
  pIC50: 8.64
- molecule: "Cc1ncc(C(CNC(=O)c2ccccc2Cl)c2ccncc2)cn1 (centres unmarked)"
  pIC50: 5.89
- molecule: "CC(CNC(=O)c1cccc(F)c1Cl)(CC1CC1)c1cnc(C(F)(F)F)nc1 (single isomer, unassigned; (-)) [(−)2-chloro-N-[3-cyclopropyl-2-methyl-2-[2-(trifluoromethyl)]"
  pIC50: 7.47

Look up pIC50 for the entries below, preserving their order.
1. Cc1ccc(F)cc1C(=O)NCC1(c2ccc(C(F)(F)F)nc2)CCC(F)(F)CC1
2. Cc1ncc(C(CNC(=O)c2c(F)cccc2Cl)C2CCC(F)(F)CC2)cn1 (centres unmarked)
3. CC(CNC(=O)c1cccc(Cl)c1Cl)(CC1CC1)c1cnc(C(F)(F)F)nc1 (single isomer, unassigned; (+))

Result:
1: 8.04; 2: 6.82; 3: 7.13
